Just for reference, PubChem BioAssay AID1276 is where these values come from.

experiment: activators of APP 5'UTR luciferase reporter, primary screen, SH-SY5Y cells (AID 1276); conditions: SH-SY5Y APP 5'UTR luciferase reporter, luminescence; at 2 µM; stronger effect = higher value; zero percent = DMSO vehicle wells
Among all 190,000 compounds or so, about 2,000 (1.1%) were called active. What follows is part of a selection rich in actives, with near analogues and random picks from the rest.
Dear colleague, classification is by activation, with ranges listed here: c1 = under 10%, c2 = from 10% up to 50%, c3 = 50% and over

Below are worked cases with known answers.
RECORD_SMILES: O=C(NCCC1=CCCCC1)c1ccc(Cl)c([N+](=O)[O-])c1
CAT: c1
--
RECORD_SMILES: CN(c1ccc(C(=O)NCCC2=CCCCC2)cc1)S(C)(=O)=O
CAT: c3
--
RECORD_SMILES: COc1ccc(-n2ncc3c(N4CCc5ccccc54)ncnc32)cc1
CAT: c3
--
RECORD_SMILES: CCN(CC)C(=O)CSc1ncnc2c1cnn2-c1ccccc1
CAT: c2
--
RECORD_SMILES: O=C(NNc1ncnc2c1cnn2-c1ccccc1)c1ccco1
CAT: c1

In: Which activation category applies to `c1ccc(-n2ncc3c(N4CCCC4)ncnc32)cc1` here?
Out: c3

In: Which activation category applies to `CCCCCN(C(=O)NC(=O)Nc1cccc(C)c1C)S(C)(=O)=O` here?
Out: c2

In: Which activation category applies to `Cc1cccc(-n2ncc3c(N4CCc5ccccc54)ncnc32)c1` here?
Out: c2

In: Which activation category applies to `COc1ccc(Sc2nc(-c3ccccc3)ncc2OC)cc1` here?
Out: c1

In: Which activation category applies to `O=C(Cc1ccccc1)NNC(=O)C1CCN(c2ncccn2)CC1` here?
Out: c2
